Assay: in vivo
Settings: male, Balb, Nu/Nu, mouse, iv, 10 mg/kg
Measure: Vd (L/kg)
Numeric answer only, unit L/kg assumed.

Record CC1c2cccc(C(N)=O)c2C(=O)N1C1CCN(C2CCCCC2)CC1 (racemic) [Compound 3] , field Vd: 3.61

Record CC1c2cccc(C(N)=O)c2C(=O)N1C1CCN(C2CCCC2)CC1 (stereo not drawn) [Compound 13] , field Vd: 4.7

Record CC1c2cccc(C(N)=O)c2C(=O)N1C1CCN(CC2CCCCC2)CC1 (stereo not drawn) [Compound 21] , field Vd: 4.9

Record CC1c2cccc(C(N)=O)c2C(=O)N1C1CCN(Cc2ccc[nH]2)CC1 (stereo not drawn) [Compound 19] , field Vd: 3.9

Record CC1c2cccc(C(N)=O)c2C(=O)N1C1CCN(C2CCC2)CC1 (stereo not drawn) [Compound 18] , field Vd: 3.84

Record C[C@H]1c2cccc(C(N)=O)c2C(=O)N1C1CCN(C2CCCCC2)CC1 [Compound 4] , field Vd: 6.8

* * *

Target: PARP-1 (Homo sapiens (Human), UniProt P09874)
Sequence (P09874 whole entry): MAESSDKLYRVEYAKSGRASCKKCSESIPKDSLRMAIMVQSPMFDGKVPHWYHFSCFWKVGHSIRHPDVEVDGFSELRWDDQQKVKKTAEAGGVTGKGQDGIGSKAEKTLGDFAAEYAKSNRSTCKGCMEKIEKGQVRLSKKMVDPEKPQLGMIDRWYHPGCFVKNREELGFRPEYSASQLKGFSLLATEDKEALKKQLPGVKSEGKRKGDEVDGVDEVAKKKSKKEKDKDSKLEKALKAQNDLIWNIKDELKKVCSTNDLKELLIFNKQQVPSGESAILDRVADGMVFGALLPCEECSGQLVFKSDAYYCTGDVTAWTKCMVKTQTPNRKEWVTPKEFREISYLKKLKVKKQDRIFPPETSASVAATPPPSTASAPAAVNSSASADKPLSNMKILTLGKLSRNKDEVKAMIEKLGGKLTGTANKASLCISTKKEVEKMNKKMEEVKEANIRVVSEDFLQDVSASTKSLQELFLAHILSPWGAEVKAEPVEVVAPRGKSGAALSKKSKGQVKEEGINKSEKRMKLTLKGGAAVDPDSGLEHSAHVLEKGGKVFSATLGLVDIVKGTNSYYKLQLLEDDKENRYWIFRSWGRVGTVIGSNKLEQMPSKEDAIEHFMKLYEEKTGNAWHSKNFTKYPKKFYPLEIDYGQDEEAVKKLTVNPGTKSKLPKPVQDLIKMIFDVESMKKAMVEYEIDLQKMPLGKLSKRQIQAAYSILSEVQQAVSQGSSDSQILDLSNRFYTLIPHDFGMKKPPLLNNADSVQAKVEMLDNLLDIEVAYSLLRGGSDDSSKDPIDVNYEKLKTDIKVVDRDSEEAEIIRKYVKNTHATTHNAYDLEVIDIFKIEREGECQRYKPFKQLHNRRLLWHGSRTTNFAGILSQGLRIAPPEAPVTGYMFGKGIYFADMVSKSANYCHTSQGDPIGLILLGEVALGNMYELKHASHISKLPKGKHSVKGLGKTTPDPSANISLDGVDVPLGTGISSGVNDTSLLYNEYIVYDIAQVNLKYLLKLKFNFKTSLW
Experiment: biochemical
Settings: PARP-1 (Kd), probe compound P3
pKd: −log10 of the molar value.
Please go through the items and note down their pKd.

# value of pKd, PARP-1 (Homo sapiens (Human), UniProt P09874), item CC1c2cccc(C(N)=O)c2C(=O)N1C1CCN(Cc2cccs2)CC1 (centres unmarked) = > 8.00

# value of pKd, PARP-1 (Homo sapiens (Human), UniProt P09874), item CC1c2cccc(C(N)=O)c2C(=O)N1C1CCN(C2CCC2)CC1 (centres unmarked) = > 8.00

* * *

Target: PARP-2 (Homo sapiens (Human), UniProt Q9UGN5)
Sequence (Q9UGN5 whole entry): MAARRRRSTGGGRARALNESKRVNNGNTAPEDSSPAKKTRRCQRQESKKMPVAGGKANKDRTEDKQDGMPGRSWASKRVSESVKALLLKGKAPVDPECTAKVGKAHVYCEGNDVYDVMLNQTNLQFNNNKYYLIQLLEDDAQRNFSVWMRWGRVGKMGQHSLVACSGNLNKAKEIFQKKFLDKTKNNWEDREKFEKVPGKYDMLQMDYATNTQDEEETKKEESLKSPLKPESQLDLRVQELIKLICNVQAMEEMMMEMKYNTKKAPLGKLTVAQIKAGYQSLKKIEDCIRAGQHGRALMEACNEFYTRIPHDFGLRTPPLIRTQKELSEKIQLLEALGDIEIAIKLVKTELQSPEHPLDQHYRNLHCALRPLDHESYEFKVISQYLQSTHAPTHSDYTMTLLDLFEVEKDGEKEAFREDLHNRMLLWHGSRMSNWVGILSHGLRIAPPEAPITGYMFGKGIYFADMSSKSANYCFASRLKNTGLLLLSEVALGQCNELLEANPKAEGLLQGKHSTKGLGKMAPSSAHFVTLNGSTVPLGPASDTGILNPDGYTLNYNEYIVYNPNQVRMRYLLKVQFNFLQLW
Conditions: read-out: PARP-2 (DC50); probe compound P1
Measure: DC50

Record CC1c2cccc(C(N)=O)c2C(=O)N1c1ccc(CN2CCCCC2)cc1 (stereo not drawn) [Compound 38] , field DC50: > 10 µM

Record CC1c2cccc(C(N)=O)c2C(=O)N1C1CCN(Cc2ccccn2)CC1 (stereo not drawn) [Compound 9] , field DC50: > 10 µM

Record CC1c2cccc(C(N)=O)c2C(=O)N1C1CCN(Cc2ccco2)CC1 (stereo not drawn) [Compound 15] , field DC50: > 10 µM

Record CC1c2cccc(C(N)=O)c2C(=O)N1C1CCN(Cc2ncc[nH]2)CC1 (stereo not drawn) [Compound 26] , field DC50: 6.88 µM

Record CC1c2cccc(C(N)=O)c2C(=O)N1C1CCN(C2CCC2)CC1 (stereo not drawn) [Compound 18] , field DC50: 1.82 µM

Record CC1c2cccc(C(N)=O)c2C(=O)N1c1ccc(N2CCCCC2)cc1 (stereo not drawn) [Compound 36] , field DC50: > 10 µM

Record CC1c2cccc(C(N)=O)c2C(=O)N1C1CCN(CC2CC=CCC2)CC1 (stereo not drawn) [Compound 22] , field DC50: > 10 µM

Record CC1c2cc(F)cc(C(N)=O)c2C(=O)N1C1CCN(C2CCC(F)(F)CC2)CC1 (stereo not drawn) [Compound 126] , field DC50: > 10 µM

Record C[C@H]1c2cccc(C(N)=O)c2C(=O)N1C1CCN(C2CCCCC2)CC1 [Compound 4] , field DC50: > 10 µM

These data points were gathered from patent US8765972B2.
